Target: carboxyl terminal domain (CT) of Cx43 (Rattus norvegicus)
Construct: GST (N, cleaved yes); made in house; host or cells: E. coli BL-21
Sequence (P08050 255-382): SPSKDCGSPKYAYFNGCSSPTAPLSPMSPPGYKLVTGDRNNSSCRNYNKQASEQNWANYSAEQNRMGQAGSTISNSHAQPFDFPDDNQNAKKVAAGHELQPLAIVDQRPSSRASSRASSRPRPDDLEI
Assay: Peptide binding to Cx43CT determined using surface plasmon resonance (SPR)
Conditions: peptide 250 uM; immobilised recombinant Cx43CT
Description: 277(39):36706-36714 (2002), which is hereby incorporated by reference in its entirety. Briefly, cDNA derived from rat Cx43 was inserted into pGEX-6P-2 (Amersham) and expressed in E. coli (BL-21). The resultant GST-fusion protein was cleaved from the GST PreScission Protease® (Amersham Biosciences). […] Protein concentration was measured using the Bio-Rad DC Protein Assay. Protein purity was assessed by SDS-PAGE. […]
READOUT LABEL: SPR respons
Answer format: value, then unit.

SUBSTANCE: Ac-Tyr-Asn-Arg-Arg-Gly-Gly-Gly-Ser-Ala-Val-Pro-Phe-Tyr-Ser-His-Ser-Tyr-Asn-Arg-Arg-NH2 (Ac-YNRRGGGSAVPFYSHSYNRR-NH2) [Compound 2496]
MEASUREMENT TARGET: carboxyl terminal domain (CT) of Cx43 (Rattus norvegicus)
RESULT: 358.1 arbitrary units
--
SUBSTANCE: Ac-Arg-Arg-Asn-Tyr-Val-Pro-Arg-Arg-Asn-Tyr-NH2 (Ac-RRNYVPRRNY-NH2) [Compound 2512]
MEASUREMENT TARGET: carboxyl terminal domain (CT) of Cx43 (Rattus norvegicus)
RESULT: 117.2 arbitrary units
--
SUBSTANCE: Ac-Arg-Arg-Asn-Tyr-Gly-Gly-Gly-Ser-Ala-Val-Pro-Phe-Tyr-Arg-Arg-Asn-Tyr-NH2 (Ac-RRNYGGGSAVPFYRRNY-NH2) [Compound 2508]
MEASUREMENT TARGET: carboxyl terminal domain (CT) of Cx43 (Rattus norvegicus)
RESULT: 284.6 arbitrary units
--
SUBSTANCE: Ac-Arg-Arg-Asn-Tyr-Ser-His-Ser-Arg-Arg-Asn-Tyr-NH2 (Ac-RRNYSHSRRNY-NH2) [Compound 2507]
MEASUREMENT TARGET: carboxyl terminal domain (CT) of Cx43 (Rattus norvegicus)
RESULT: 254.2 arbitrary units
--
SUBSTANCE: Ac-Arg-Arg-Asn-Tyr-Ser-Ala-Val-Pro-Phe-Tyr-Ser-His-Ser-Arg-Arg-Asn-Tyr-NH2 (Ac-RRNYSAVPFYSHSRRNY-NH2) [Compound 2506]
MEASUREMENT TARGET: carboxyl terminal domain (CT) of Cx43 (Rattus norvegicus)
RESULT: 327 arbitrary units

Now, please, on to the next substance.
Q: GET /values?readout=SPR respons&item= Ac-Arg-Arg-Asn-Tyr-Ala-Val-Pro-Phe-Arg-Arg-Asn-Tyr-NH2 (Ac-RRNYAVPFRRNY-NH2) [Compound 2511]
Result: 214.2 arbitrary units
